# target.under.test: human plasma kallikrein (Homo sapiens)
# run.description: Kallikrein inhibition FLINT assay with quenched AMC peptide substrate Z-Gly-Pro-Arg-AMC (end point EP or kinetic KIN reads)
# Type: biochemical
# assay.setup: kinetic reads at 5 min intervals over 30 min; read-out: Kallikrein (KIN) IC50
quantity: log10 of IC50 (log10 of the value in nM)
Recall that a logarithmic scale is used here: each number is log10 of IC50 in nM.

molecule	log10 of IC50
COCCC(c1ccc(-c2c(-n3cnnn3)ccc(Cl)c2F)c[n+]1[O-])n1cc(C2CCN(C(=O)OC)CC2)cn1 (stereo not drawn)	2.97

Looking up O=C(O)c1ccc(-c2cnn(C(CCOC(F)F)c3ccc(-c4c(-n5cc(C(F)(F)F)nn5)ccc(Cl)c4F)c[n+]3[O-])c2)cc1 (stereo not drawn) , I see its log10 of IC50 listed as 1.49

Looking up [O-][n+]1cc(-c2c(-n3cc(C(F)(F)F)nn3)ccc(Cl)c2F)ccc1C(Cc1ccn(C(F)F)n1)n1cc(-c2ncnn2C(F)F)cn1 (single isomer, unassigned) , I see its log10 of IC50 listed as 1.68

Looking up [O-][n+]1cc(-c2c(-n3cnnn3)ccc(Cl)c2F)ccc1C(CC1CC1)n1cc(-c2cnco2)cn1 (stereo not drawn) [Example P455] , I see its log10 of IC50 listed as 2.70

Looking up Cn1ccc(C[C@H](c2ccc(-c3cc(Cl)ccc3C#N)c[n+]2[O-])n2cc(-c3ccc(C(=O)O)cc3)cn2)n1 , I see its log10 of IC50 listed as 1.76

Looking up COCC[C@@H](c1ccc(-c2c(-n3cnnn3)ccc(Cl)c2F)c[n+]1[O-])n1cc(-c2cc(C(F)(F)F)nn2C)cn1 , I see its log10 of IC50 listed as 3.72

Looking up [O-][n+]1cc(-c2c(-n3cnnn3)ccc(Cl)c2F)ccc1C(Cc1ccc(F)cc1)n1cc(-c2ccncc2)cn1 (single isomer, unassigned) [Example P235] , I see its log10 of IC50 listed as 0.15

Looking up CCC(c1cc(OC)c(-c2cc(Cl)ccc2-n2cc(C(F)(F)F)nn2)c[n+]1[O-])n1cc(-c2ncnn2C(F)F)cn1 (single isomer, unassigned) , I see its log10 of IC50 listed as 1.59

Looking up [O-][n+]1cc(-c2c(-n3cnnn3)ccc(Cl)c2F)ccc1C(Cn1cccn1)n1cc(-c2ccnc(C(F)F)c2)cn1 (stereo not drawn) , I see its log10 of IC50 listed as 1.14

Looking up O=C1CCCN1CC(c1ccc(-c2c(-n3cnnn3)ccc(Cl)c2F)c[n+]1[O-])n1cc(-c2cc[n+]([O-])cc2)cn1 (single isomer, unassigned) , I see its log10 of IC50 listed as 1.35

Looking up Cc1cc(-c2cnn(C(Cn3cc(F)cn3)c3ccc(-c4c(-n5cnnn5)ccc(Cl)c4F)c[n+]3[O-])c2)cc[n+]1[O-] (stereo not drawn) , I see its log10 of IC50 listed as 1.61

----------
IC50: recorded values
# target.under.test: human plasma kallikrein (Homo sapiens)
# run.description: Kallikrein inhibition FLINT assay with quenched AMC peptide substrate Z-Gly-Pro-Arg-AMC (end point EP or kinetic KIN reads)
# Type: biochemical
# assay.setup: end point read at 30 min; read-out: Kallikrein (EP) IC50
Write the number in nM without appending the unit.

Please review the entries below; each comes with its answer.
molecule	target.under.test	observed.measurement
CS(=O)(=O)NC(=O)c1ccc(-c2cnn(C(CC3CC3)c3ccc(-c4cc(Cl)ccc4-n4cnnn4)c[n+]3[O-])c2)cc1 (stereo not shown)	human plasma kallikrein (Homo sapiens)	396
COC(=O)Nc1ccc(-c2cnn(C(CC3CC3)c3c(F)cc(-c4c(-n5cnnn5)ccc(Cl)c4F)c[n+]3[O-])c2)cc1 (stereo not shown)	human plasma kallikrein (Homo sapiens)	57.3
O=C(O)c1ccc(-c2cnn(C(c3cn(-c4ccccc4)nn3)c3ccc(-c4c(-n5cnnn5)ccc(Cl)c4F)c[n+]3[O-])c2)cc1 (stereo not shown)	human plasma kallikrein (Homo sapiens)	800

Looking up O=C1OCc2cc(-c3cnn(C(CC4CC4)c4ccc(-c5cc(Cl)ccc5-n5cnnn5)c[n+]4[O-])c3)ccc21 (stereo not shown) , I see its IC50 listed as 401

----------
# target.under.test: human plasma kallikrein (Homo sapiens)
# run.description: Kallikrein inhibition FLINT assay with quenched AMC peptide substrate Z-Gly-Pro-Arg-AMC (end point EP or kinetic KIN reads)
# Assay type: biochemical
# assay.setup: kinetic reads at 5 min intervals over 30 min; read-out: Kallikrein (KIN) IC50
pIC50: −log10 of the molar value.
// label = label 1 if pIC50 is not less than 7, otherwise label 0

Please review the following examples before continuing.
compound	target.under.test	label.class
CC(C)c1cc(-c2cnn(C(Cn3cc(F)cn3)c3ccc(-c4c(-n5cnnn5)ccc(Cl)c4F)c[n+]3[O-])c2)ccn1 (centres unmarked)	human plasma kallikrein (Homo sapiens)	label 1
N#Cc1cnn(CC(c2ccc(-c3c(-n4cc(C(F)(F)F)nn4)ccc(Cl)c3F)c[n+]2[O-])n2cc(-c3ccc(C(N)=O)c(F)c3)cn2)c1 (centres unmarked)	human plasma kallikrein (Homo sapiens)	label 0
COC(=O)Nc1ccc(-c2cnn(C(Cc3ccn(C)n3)c3ccc(-c4c(-n5cnnn5)ccc(Cl)c4F)c[n+]3[O-])c2)cc1 (single isomer, unassigned) [Example P330]	human plasma kallikrein (Homo sapiens)	label 1
[O-][n+]1cc(-c2c(-n3cnnn3)ccc(Cl)c2F)ccc1[C@@H](CC1CC1)n1cc(-c2ncnn2C(F)F)cn1	human plasma kallikrein (Homo sapiens)	label 0
O=C(O)c1ccc(-c2cnn(C(CC3CC3)c3ccc(-c4c(C(F)F)ccc(Cl)c4F)c[n+]3[O-])c2)cc1 (centres unmarked) [Example Q16]	human plasma kallikrein (Homo sapiens)	label 0

Can COc1cc(C(CC2CC2)n2cc(-c3ncnn3C(F)F)cn2)[n+]([O-])cc1-c1c(C#N)ccc(Cl)c1F (centres unmarked) be said to have pIC50 at or above 7?
label 1

Can CN(CC(c1ccc(-c2c(-n3cnnn3)ccc(Cl)c2F)c[n+]1[O-])n1cc(-c2ccnc(C(F)(F)F)c2)cn1)C(=O)OCc1ccccc1 (single isomer, unassigned) be said to have pIC50 at or above 7?
label 1

----------
# target.under.test: human plasma kallikrein (Homo sapiens, UniProt P03952)
# Sequence (P03952 391-638 limits assumed): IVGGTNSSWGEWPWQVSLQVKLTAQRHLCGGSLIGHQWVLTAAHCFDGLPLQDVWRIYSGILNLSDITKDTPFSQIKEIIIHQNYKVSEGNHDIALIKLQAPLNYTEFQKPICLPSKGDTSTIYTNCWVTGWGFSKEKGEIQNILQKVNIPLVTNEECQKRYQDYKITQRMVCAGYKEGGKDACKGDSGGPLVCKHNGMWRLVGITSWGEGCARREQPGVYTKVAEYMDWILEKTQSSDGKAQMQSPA
# Sequence (P03952 20-390 partner limits assumed): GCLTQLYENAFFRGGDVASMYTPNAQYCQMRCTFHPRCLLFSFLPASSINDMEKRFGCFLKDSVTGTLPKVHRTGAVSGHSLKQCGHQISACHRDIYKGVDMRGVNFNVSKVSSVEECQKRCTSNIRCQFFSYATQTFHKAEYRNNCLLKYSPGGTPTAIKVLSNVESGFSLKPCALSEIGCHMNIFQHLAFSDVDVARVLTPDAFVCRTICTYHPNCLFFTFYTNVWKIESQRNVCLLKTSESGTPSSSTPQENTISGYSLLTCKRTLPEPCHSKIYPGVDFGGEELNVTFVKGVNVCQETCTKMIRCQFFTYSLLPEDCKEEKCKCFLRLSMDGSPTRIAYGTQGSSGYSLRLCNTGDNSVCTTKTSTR
# run.description: Kallikrein inhibition FLINT assay with quenched AMC peptide substrate Z-Gly-Pro-Arg-AMC (end point EP or kinetic KIN reads)
# Assay type: biochemical
# assay.setup: kinetic reads at 5 min intervals over 30 min; read-out: Kallikrein (KIN) IC50
quantity: IC50 (nM)
Write the number in nM without appending the unit.

Please review the entries below; each comes with its answer.
molecule	IC50, nM
COC(=O)Nc1ccc(-c2cnn(C(Cn3ccccc3=O)c3ccc(-c4c(-n5cnnn5)ccc(Cl)c4F)c[n+]3[O-])c2)cc1 (stereo not drawn) [Example P305]	5.5
[O-][n+]1cc(-c2c(-n3cnnn3)ccc(Cl)c2F)ccc1C(Cn1cc2c(n1)COCC2)n1cc(-c2ccnc(C(F)(F)F)c2)cn1 (stereo not drawn) [Example P465]	76.5

We next turn to a different molecule, shown below.
Looking up [O-][n+]1cc(-c2c(-n3cnnn3)ccc(Cl)c2F)ccc1C(CCOC(F)F)n1cc(-c2c(Cl)cnn2C(F)F)cn1 (stereo not drawn) [Example P574] , I see its IC50 listed as 7.9

----------
log10 IC50: recorded values
# target.under.test: human plasma kallikrein (Homo sapiens, UniProt P03952)
# run.description: Kallikrein inhibition FLINT assay with quenched AMC peptide substrate Z-Gly-Pro-Arg-AMC (end point EP or kinetic KIN reads)
# Type: biochemical
# assay.setup: kinetic reads at 5 min intervals over 30 min; read-out: Kallikrein (KIN) IC50
Recall that a logarithmic scale is used here: each number is log10 of IC50 in µM.

Please review the entries below; each comes with its answer.
molecule	quantity	observed.measurement
[O-][n+]1cc(-c2c(-n3cnnn3)ccc(Cl)c2F)ccc1[C@@H](Cc1ccn(C(F)F)n1)n1cc(-c2ccnn2C(F)F)cn1 [Example P734]	log10 IC50	-2.19
Cn1cc(CC(c2ccc(-c3c(-n4cnnn4)ccc(Cl)c3F)c[n+]2[O-])n2cc(-c3ccnc(C(F)(F)F)c3)cn2)cn1 (stereo not drawn) [Example P452]	log10 IC50	-1.97
NC(=O)c1ccc(-c2cnn(C(Cc3ccn(C(F)F)n3)c3ccc(-c4c(C(F)F)ccc(Cl)c4F)c[n+]3[O-])c2)cc1 (single isomer, unassigned) [Example Q68]	log10 IC50	-0.95
COCCC(c1ccc(-c2c(-n3cnnn3)ccc(Cl)c2F)c[n+]1[O-])n1cc(-c2ccc(NC(=O)OC)cc2)cn1 (single isomer, unassigned) [Example P84]	log10 IC50	-1.84
Cn1ccc(CC(c2ccc(-c3c(-n4cnnn4)ccc(Cl)c3F)c[n+]2[O-])n2cc(-c3ccnc(C(F)(F)F)c3)cn2)n1 (single isomer, unassigned) [Example P378]	log10 IC50	-0.85

We next turn to a different molecule, shown below.
Looking up COC(=O)Nc1ccc(-c2cnn(C(CC3CCCCO3)c3ccc(-c4c(-n5cnnn5)ccc(Cl)c4F)c[n+]3[O-])c2)cc1 (stereo not drawn) [Example P220] , I see its log10 IC50 listed as -1.86
